B1: SPOPL (parent)
chain: YTGRAPNLDKMADNLLAAADKYAL

- Variants of: B1
- protocol.description: protein stability index of a GFP-peptide fusion (GPS, HEK-293T) (PSI 1-6); higher = more stable;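 also: lentivirally expressed fusions sorted by FACS into six bins by GFP to DsRed ratio, PSI derived from sequencing read proportions per bin multiplied by bin number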
- applied.conditions: c terminus: a fixed tail appended
property.label: protein stability index
Answers are plain numbers.

>>> value("YTGRAPILDKMADNLLAAADKYAL [N7I]")
1.81
>>> value("YTGRFPNLDKMADNLLAAADKYAL [A5F]")
2.31
>>> value("YTGRIPNLDKMADNLLAAADKYAL [A5I]")
1.58
>>> value("YTGRAPNLDKMADNLYAAADKYAL [L16Y]")
2.06

Batch request: protein stability index per item, same order as input.
1. YTGRAPNLDKMADNLLADADKYAL [A18D]
2. YTGRAPNLDKMADNLLAAADKYAR [L24R]
3. YTGRAPNLDKMADNLLAAPDKYAL [A19P]
4. YTGRAPNLDRMADNLLAAADKYAL [K10R]

2.62
2.24
2.7
1.43
